This collection of values is drawn from the kinase profiling compilation of Christmann-Franck et al. (2016).

- SYSTEM: MAPKAPK5 (human) (UniProt Q8IW41)
- Sequence (Q8IW41 whole entry, looked up): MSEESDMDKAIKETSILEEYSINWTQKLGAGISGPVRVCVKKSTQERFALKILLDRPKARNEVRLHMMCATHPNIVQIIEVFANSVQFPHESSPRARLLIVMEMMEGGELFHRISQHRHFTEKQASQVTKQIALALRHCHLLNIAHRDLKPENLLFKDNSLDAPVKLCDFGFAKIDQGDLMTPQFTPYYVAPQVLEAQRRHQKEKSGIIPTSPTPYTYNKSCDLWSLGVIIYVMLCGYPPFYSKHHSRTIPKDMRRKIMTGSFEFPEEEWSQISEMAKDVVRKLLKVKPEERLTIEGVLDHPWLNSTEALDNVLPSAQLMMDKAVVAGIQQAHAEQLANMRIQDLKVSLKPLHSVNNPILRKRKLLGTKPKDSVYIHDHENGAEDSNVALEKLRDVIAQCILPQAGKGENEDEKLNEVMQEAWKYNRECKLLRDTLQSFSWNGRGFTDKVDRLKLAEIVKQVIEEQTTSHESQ
- ASSAY_PROTOCOL: radiometric filter-binding kinase assay, Kinase HotSpot
- SETTINGS: compound 0.5 µM; ATP 10 µM
// label = fulfilled if residual activity is not less than 90%, otherwise not fulfilled

Examples with answers:
1. CC#CC(=O)Nc1cc2c(Nc3ccc(F)c(Cl)c3)ncnc2cn1 : fulfilled
2. CCN(CC)CCNC(=O)c1c(C)[nH]c(/C=C2\C(=O)Nc3ccc(F)cc32)c1C : not fulfilled
3. COc1ccc2c(c[n+](C)c3c4cc5c(cc4ccc23)OCO5)c1OC : not fulfilled
4. Cc1[nH]c(/C=C2\C(=O)Nc3ccc(S(=O)(=O)N(C)c4cccc(Cl)c4)cc32)c(C)c1C(=O)N1CCN(C)CC1 : not fulfilled
5. Cc1ccc(Nc2nccc(N(C)c3ccc4c(C)n(C)nc4c3)n2)cc1S(N)(=O)=O : fulfilled

Ask | Is residual activity at least 90%? Consider Nc1ccc2ncnc(NCCc3ccc(Oc4ccccc4)cc3)c2c1
Reply | fulfilled

Ask | Is residual activity at least 90%? Consider CCC(=O)Nc1ccc2ncnc(Nc3cccc(Br)c3)c2c1
Reply | fulfilled

Ask | Is residual activity at least 90%? Consider c1ccc(-c2n[nH]cc2-c2ccnc3ccccc23)nc1
Reply | fulfilled

Ask | Is residual activity at least 90%? Consider O=S(=O)(c1cccc2cnccc12)N1CCCNCC1
Reply | not fulfilled

Ask | Is residual activity at least 90%? Consider CCCC(=O)Oc1ccc2[nH]c(C(=O)c3cc4ccccc4[nH]3)cc2c1
Reply | fulfilled

Ask | Is residual activity at least 90%? Consider O=C1NC(=O)C(c2cn(CCCn3ccnc3)c3ccccc23)=C1Nc1ccccc1
Reply | fulfilled

Ask | Is residual activity at least 90%? Consider Cc1ccc(NC2=CC(=O)c3sc(C)nc3C2=O)cc1
Reply | fulfilled
